# system.name: GST-Bcl-2 (Homo sapiens (Human), UniProt P10415)
# Sequence (P10415 whole entry): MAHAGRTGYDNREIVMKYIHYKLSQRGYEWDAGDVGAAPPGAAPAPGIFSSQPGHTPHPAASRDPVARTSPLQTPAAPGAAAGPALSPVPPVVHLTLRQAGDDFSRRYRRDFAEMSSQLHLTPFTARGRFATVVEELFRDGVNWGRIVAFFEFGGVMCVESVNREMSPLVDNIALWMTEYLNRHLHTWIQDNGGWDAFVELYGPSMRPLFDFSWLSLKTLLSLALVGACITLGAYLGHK
# test.name: Time Resolved-Fluorescence Resonance Energy Transfer (TR-FRET) Bcl-2 binding assay
# condition.set: GST-Bcl-2 1 nM, F-Bak peptide probe 100 nM, Tb-anti-GST antibody 1 nM; Ki by Wang's equation
Could you please report measured Ki for the items listed next?
Give bare numbers, in nM.

Consider the following illustrative entries.
C=CCN1CCC(Nc2ccc(S(=O)(=O)NC(=O)c3ccc(N4CCN(CC5=C(c6ccc(Cl)cc6)CC(C)(C)CC5)CC4)cc3Oc3cccc(F)c3F)cc2[N+](=O)[O-])CC1 = 0.04
Cc1nc2ccc(Oc3cc(N4CCN(Cc5ccccc5-c5ccc(Cl)cc5)CC4)ccc3C(=O)NS(=O)(=O)c3ccc(NCC4CCOCC4)c([N+](=O)[O-])c3)cc2s1 = 8.27
CN(C)Cc1cccc(Oc2cc(N3CCN(Cc4ccccc4-c4ccc(Cl)cc4)CC3)ccc2C(=O)NS(=O)(=O)c2ccc(NCC3CCOCC3)c([N+](=O)[O-])c2)c1 = 8.35

Reported Ki ( CC1(C)CCC(CN2CCN(c3ccc(C(=O)NS(=O)(=O)c4ccc(NCC5CCOCC5)c([N+](=O)[O-])c4)c(Oc4ccc(NCC(F)F)nc4)c3)CC2)=C(c2ccc(Cl)cc2)C1 ) = 57.7

====

Answer each item with its documented Ki.
# system.name: GST-Bcl-2 (Homo sapiens (Human), UniProt P10415)
# test.name: Time Resolved-Fluorescence Resonance Energy Transfer (TR-FRET) Bcl-2 binding assay
# condition.set: GST-Bcl-2 1 nM, F-Bak peptide probe 100 nM, Tb-anti-GST antibody 1 nM; Ki by Wang's equation
# Protocol: Determination of the utility of compounds having Formula (I) as binders to and inhibitors of anti-apoptotic Bcl-2 proteins was performed using the Time Resolved-Fluorescence Resonance Energy Transfer (TR-FRET) Assay. Tb-anti-GST antibody was purchased from Invitrogen (Catalog No. PV4216). Representative compounds were serially diluted in dimethyl sulfoxide (DMSO) starting at 50 μM (2× starting concentration; 10% DMSO) and 10 μL were transferred into a 384-well plate. […]
Answers are plain numbers, in nM.

CN1CCC(Nc2ccc(S(=O)(=O)NC(=O)c3ccc(N4CCN(CC5=C(c6ccc(Cl)cc6)CC(C)(C)OC5)CC4)cc3Oc3cccc(Cl)c3)cc2[N+](=O)[O-])CC1 = 0.028

Need Ki for each of these compounds.
1. CC1(C)CCC(CN2CCN(c3ccc(C(=O)NS(=O)(=O)c4ccc(NC(CO)C5CCOCC5)c([N+](=O)[O-])c4)c(Oc4cc5cc[nH]c5cc4F)c3)CC2)=C(c2ccc(Cl)cc2)C1 (stereo not drawn)
2. O=C(NS(=O)(=O)c1ccc(NCC2CCOCC2)c([N+](=O)[O-])c1)c1ccc(N2CCN(Cc3ccccc3-c3ccc(Cl)cc3)CC2)cc1Oc1ccc2[nH]cc(CCC(=O)N3CCOCC3)c2c1

1: 0.912; 2: 32.3

====

# system.name: GST-Bcl-2 (Homo sapiens (Human), UniProt P10415)
# test.name: Time Resolved-Fluorescence Resonance Energy Transfer (TR-FRET) Bcl-2 binding assay
# condition.set: GST-Bcl-2 1 nM, F-Bak peptide probe 100 nM, Tb-anti-GST antibody 1 nM; Ki by Wang's equation
reported.property: Ki (nM)
Give bare numbers, in nM.

Reference set, count: 4
CC1(C)CCC(CN2CCN(c3ccc(C(=O)NS(=O)(=O)c4cnc(OCC5(F)CCN(C(CF)CF)CC5)c(C(F)(F)F)c4)c(Oc4cnc(N)c(Cl)c4)c3)CC2)=C(c2ccc(Cl)cc2)C1 [Example 405] = 0.354
Cc1cc2cc(Oc3cc(N4CCN(CC5=C(c6ccc(Cl)cc6)CC(C)(C)CC5)CC4)ccc3C(=O)NS(=O)(=O)c3ccc(NCCCN4CCOCC4)c([N+](=O)[O-])c3)ccc2[nH]1 [Example 4] = 2.47
CC1(C)CCC(CN2CCN(c3ccc(C(=O)NS(=O)(=O)c4ccc(NC5CCN(Cc6ccsc6)CC5)c([N+](=O)[O-])c4)c(Oc4cccc(F)c4F)c3)CC2)=C(c2ccc(Cl)cc2)C1 [Example 136] = 0.177
CC1(C)CC(c2ccc(Cl)cc2)=C(CN2CCN(c3ccc(C(=O)NS(=O)(=O)c4ccc(NC5CCC(N6CCOCC6)CC5)c([N+](=O)[O-])c4)c(Oc4cc5cc[nH]c5cc4F)c3)CC2)CO1 (stereo not shown) [Example 295] = 0.077

Please supply Ki for each of the following items, keeping them in order.
1. Cc1nc2cc(Oc3cc(N4CCN(Cc5ccccc5-c5ccc(Cl)cc5)CC4)ccc3C(=O)NS(=O)(=O)c3ccc(NCCCN(C)C)c([N+](=O)[O-])c3)ccc2s1 [Example 25]
2. CC1(C)CCC(CN2CCN(c3ccc(C(=O)NS(=O)(=O)c4ccc(NC5CCOCC5)c([N+](=O)[O-])c4)c(Oc4cc5cc[nH]c5cc4F)c3)CC2)=C(c2ccc(Cl)cc2)C1 [Example 251]
3. CN1CCN(Nc2ccc(S(=O)(=O)NC(=O)c3ccc(N4CCN(CC5=C(c6ccc(Cl)cc6)CC(C)(C)CC5)CC4)cc3Oc3ccc(O)cc3Cl)cc2S(=O)(=O)C(F)(F)F)CC1 [Example 211]
4. CC1(C)CCC(CN2CCN(c3ccc(C(=O)NS(=O)(=O)c4ccc(OCC5(F)CCOCC5)c([N+](=O)[O-])c4)c(Oc4cnc(N)c(Br)c4)c3)CC2)=C(c2ccc(Cl)cc2)C1 [Example 360]
5. COc1ccc(Cn2nnc3c(Oc4cc(N5CCN(CC6=C(c7ccc(Cl)cc7)CC(C)(C)CC6)CC5)ccc4C(=O)NS(=O)(=O)c4ccc(NCC5CCOCC5)c([N+](=O)[O-])c4)cccc32)cc1 [Example 342]

[1.5, 0.435, 1.34, 0.05, 3.34]

For the 3 molecules below, give their Ki values.
1. CC1(C)CCC(CN2CCN(c3ccc(C(=O)NS(=O)(=O)c4ccc(NC5CCN(C6CCOCC6)CC5)c([N+](=O)[O-])c4)c(Oc4cccc(F)c4Cl)c3)CC2)=C(c2ccc(Cl)cc2)C1 [Example 178]
2. CC(C)(C)OC(=O)Nc1cccc(Oc2cc(N3CCN(Cc4ccccc4-c4ccc(Cl)cc4)CC3)ccc2C(=O)NS(=O)(=O)c2ccc(NCC3CCOCC3)c([N+](=O)[O-])c2)c1 [Example 85]
3. CN1CCC(Nc2ccc(S(=O)(=O)NC(=O)c3ccc(N4CCN(CC5=C(c6ccc(Cl)cc6)CC(C)(C)CC5)CC4)cc3Oc3ccc(F)cc3Cl)cc2[N+](=O)[O-])CC1 [Example 61]

1. 0.175
2. 5.63
3. 0.22

====

# system.name: GST-Bcl-2 (Homo sapiens (Human), UniProt P10415)
# test.name: Time Resolved-Fluorescence Resonance Energy Transfer (TR-FRET) Bcl-2 binding assay
# condition.set: GST-Bcl-2 1 nM, F-Bak peptide probe 100 nM, Tb-anti-GST antibody 1 nM; Ki by Wang's equation
reported.property: pKi
Numbers only, as −log10 of the molar value.

CN1CCC(Nc2ccc(S(=O)(=O)NC(=O)c3ccc(N4CCN(CC5=C(c6ccc(Cl)cc6)CC(C)(C)CC5)CC4)cc3Oc3cc4cc[nH]c4cc3F)cc2[N+](=O)[O-])CC1 = 10.92

Provide the reported pKi of each entry below, same order.
1. O=C1CCc2c(cccc2Oc2cc(N3CCN(Cc4ccccc4-c4ccc(Cl)cc4)CC3)ccc2C(=O)NS(=O)(=O)c2ccc(NCC3CCOCC3)c([N+](=O)[O-])c2)N1
2. Cc1nc(C)c(-c2cccc(Oc3cc(N4CCN(Cc5ccccc5-c5ccc(Cl)cc5)CC4)ccc3C(=O)NS(=O)(=O)c3ccc(NCCCN4CCOCC4)c([N+](=O)[O-])c3)c2)s1
3. COCOc1cccc(Oc2cc(N3CCN(CC4=C(c5ccc(Cl)cc5)CC(C)(C)CC4)CC3)ccc2C(=O)NS(=O)(=O)c2ccc(NC3CCN(C)CC3)c([N+](=O)[O-])c2)c1C
4. CC1(C)CCC(CN2CCN(c3ccc(C(=O)NS(=O)(=O)c4ccc(NCCCN5CCOCC5)c([N+](=O)[O-])c4)c(Oc4ccccc4Cl)c3)CC2)=C(c2ccc(Cl)cc2)C1

1. 9.37
2. 8.14
3. 9.21
4. 9.91

====

For each of the compounds below, state its Ki.
# system.name: GST-Bcl-2 (Homo sapiens (Human), UniProt P10415)
# test.name: Time Resolved-Fluorescence Resonance Energy Transfer (TR-FRET) Bcl-2 binding assay
# condition.set: GST-Bcl-2 1 nM, F-Bak peptide probe 100 nM, Tb-anti-GST antibody 1 nM; Ki by Wang's equation
Give bare numbers, in nM.

Observe how each entry below is paired with its result.
CC1(C)CCC(CN2CCN(c3ccc(C(=O)NS(=O)(=O)c4ccc(NCC5CCOCC5)c([N+](=O)[O-])c4)c(Oc4cccc5[nH]cc(Cl)c45)c3)CC2)=C(c2ccc(Cl)cc2)C1 [Example 266] = 0.81
CC1(C)CCC(CN2CCN(c3ccc(C(=O)NS(=O)(=O)c4ccc(NC5CCN(C6CCCC6)CC5)c([N+](=O)[O-])c4)c(Oc4ccccc4Cl)c3)CC2)=C(c2ccc(Cl)cc2)C1 [Example 117] = 0.072
CNc1cccc(Oc2cc(N3CCN(Cc4ccccc4-c4ccc(Cl)cc4)CC3)ccc2C(=O)NS(=O)(=O)c2ccc(NCC3CCOCC3)c([N+](=O)[O-])c2)c1 [Example 2] = 31.5

Then there is this compound:
Log: GST-Bcl-2 (Homo sapiens (Human), UniProt P10415), compound CC1(C)CCC(CN2CCN(c3ccc(C(=O)NS(=O)(=O)c4ccc(NCC5CCOCC5)c([N+](=O)[O-])c4)c(Oc4cc(N)ncc4Br)c3)CC2)=C(c2ccc(Cl)cc2)C1 [Example 395] , Ki = 0.077
